Settings: 308.15 K; 101.33 kPa; Liquid; Vibrating tube method
Kindly state mass density for each of the entries shown.
Answers are plain numbers, in kg/m3.

[in] Provide measured mass density value, entry: CCCCO
[out] 798.18

Value sought for every listed compound: mass density.
1. CCCC[NH3+].O=[N+]([O-])[O-] [n-butylammonium nitrate]
2. CCCO
3. CCO
4. CO

[out]
1: 1095.26; 2: 791.48; 3: 776.35; 4: 777.05

----------
Kindly state log10(viscosity) for each of the entries shown.
Conditions: 308.15 K; 101.33 kPa; Liquid; Falling or rolling sphere viscometry
Give log10 of viscosity, with viscosity taken in mPa·s.

[in] Provide measured log10(viscosity) value, entry: CO [methanol]
[out] -0.31

[in] Provide measured log10(viscosity) value, entry: CCO [ethanol]
[out] -0.04

[in] Provide measured log10(viscosity) value, entry: CCCC[NH3+].O=[N+]([O-])[O-] [n-butylammonium nitrate]
[out] 1.78

[in] Provide measured log10(viscosity) value, entry: CCCO [propan-1-ol]
[out] 0.19

Lab note: next compound to report on.
[in] Provide measured log10(viscosity) value, entry: CCCCO [butan-1-ol]
[out] 0.30

----------
Kindly state viscosity for each of the entries shown.
Details: 298.15 K; 101.33 kPa; Liquid; Falling or rolling sphere viscometry
± gives the expanded uncertainty stated by the source.
Your answer should be a number followed by the unit of measure.

Here is how some molecules turned out for viscosity.
[in] Provide measured viscosity value, entry: CCCO
[out] 1.975 ± 0.016 mPa·s

[in] Provide measured viscosity value, entry: CO
[out] 0.552 ± 0.006 mPa·s

[in] Provide measured viscosity value, entry: CCO
[out] 1.134 ± 0.009 mPa·s

[in] Provide measured viscosity value, entry: CCCCO
[out] 2.572 ± 0.02 mPa·s

Lab note: next molecule to report on.
[in] Provide measured viscosity value, entry: CCCC[NH3+].O=[N+]([O-])[O-] [n-butylammonium nitrate]
[out] 89.95 ± 2.9 mPa·s

----------
Conditions: 313.15 K; 101.33 kPa; Liquid; Vibrating tube method
Kindly state mass density for each of the entries shown.
Numbers only, in kg/m3.

Here is how some compounds turned out for mass density.
[in] Provide measured mass density value, entry: CCCC[NH3+].O=[N+]([O-])[O-] [n-butylammonium nitrate]
[out] 1092.17

[in] Provide measured mass density value, entry: CCO
[out] 772.11

[in] Provide measured mass density value, entry: CO
[out] 772.25

[in] Provide measured mass density value, entry: CCCO
[out] 787.36

***
[in] Provide measured mass density value, entry: CCCCO
[out] 794.39

----------
Conditions: 313.15 K; 101.33 kPa; Liquid; Falling or rolling sphere viscometry
Kindly state viscosity for each of the entries shown.
Answers are plain numbers, in mPa·s.

Value sought for every listed molecule: viscosity.
1. CCCCO [butan-1-ol]
2. CCO [ethanol]
3. CCCO [propan-1-ol]
4. CO [methanol]
5. CCCC[NH3+].O=[N+]([O-])[O-] [n-butylammonium nitrate]

[out]
1.787
0.836
1.382
0.461
50.12

----------
Settings: 298.15 K; 101.33 kPa; Liquid; Vibrating tube method
MEASURE_NAME: mass density (kg/m3)
Answers are plain numbers, in kg/m3.

[in] Provide measured mass density value, entry: CCO
[out] 785.39

[in] Provide measured mass density value, entry: CO
[out] 786.54

[in] Provide measured mass density value, entry: CCCO
[out] 799.58

[in] Provide measured mass density value, entry: CCCC[NH3+].O=[N+]([O-])[O-] [n-butylammonium nitrate]
[out] 1101.52

Lab note: next compound to report on.
[in] Provide measured mass density value, entry: CCCCO
[out] 805.96

----------
Conditions: 303.15 K; 101.33 kPa; Liquid; Falling or rolling sphere viscometry
Where viscosity equals or exceeds 2 mPa·s, the correct label is True; where it does not, the label is False.

[in] Please check the record CCCC[NH3+].O=[N+]([O-])[O-] [n-butylammonium nitrate] and state if its viscosity is at or above 2 mPa·s.
[out] True

[in] Please check the record CCCCO and state if its viscosity is at or above 2 mPa·s.
[out] True

[in] Please check the record CO and state if its viscosity is at or above 2 mPa·s.
[out] False

[in] Please check the record CCO and state if its viscosity is at or above 2 mPa·s.
[out] False

API: the following record is the query input.
[in] Please check the record CCCO and state if its viscosity is at or above 2 mPa·s.
[out] False

----------
Details: 293.15 K; 101.33 kPa; Liquid; Falling or rolling sphere viscometry
Kindly state viscosity for each of the entries shown.
Answers are plain numbers, in mPa·s.

[in] Provide measured viscosity value, entry: CCCCO
[out] 2.942

[in] Provide measured viscosity value, entry: CCCO
[out] 2.208

[in] Provide measured viscosity value, entry: CO
[out] 0.588

Value sought for every listed molecule: viscosity.
1. CCO
2. CCCC[NH3+].O=[N+]([O-])[O-] [n-butylammonium nitrate]

[out]
1. 1.218
2. 111.35

----------
Conditions: 303.15 K; 101.33 kPa; Liquid; Vibrating tube method
MEASURE_NAME: mass density (kg/m3)
Numbers only, in kg/m3.

Here is how some compounds turned out for mass density.
[in] Provide measured mass density value, entry: CO [methanol]
[out] 781.81

[in] Provide measured mass density value, entry: CCCC[NH3+].O=[N+]([O-])[O-] [n-butylammonium nitrate]
[out] 1098.38

[in] Provide measured mass density value, entry: CCCO [propan-1-ol]
[out] 795.59

[in] Provide measured mass density value, entry: CCO [ethanol]
[out] 780.69

Lab note: next compound to report on.
[in] Provide measured mass density value, entry: CCCCO [butan-1-ol]
[out] 802.11

----------
Kindly state refractive index for each of the entries shown.
Experiment: refractive index (Na D-line) (dimensionless)
Settings: 298.15 K; 101.33 kPa; Liquid; Standard Abbe refractometry
Give bare numbers.

[in] Provide measured refractive index value, entry: CCCCO
[out] 1.3972

[in] Provide measured refractive index value, entry: CO
[out] 1.3264

[in] Provide measured refractive index value, entry: CCCC[NH3+].O=[N+]([O-])[O-] [n-butylammonium nitrate]
[out] 1.4458

[in] Provide measured refractive index value, entry: CCCO
[out] 1.3833

Lab note: next compound to report on.
[in] Provide measured refractive index value, entry: CCO
[out] 1.3594

----------
Kindly state mass density for each of the entries shown.
Settings: 293.15 K; 101.33 kPa; Liquid; Vibrating tube method
Numbers after ± are expanded uncertainties.
Your answer should be a number followed by the unit of measure.

[in] Provide measured mass density value, entry: CCCC[NH3+].O=[N+]([O-])[O-] [n-butylammonium nitrate]
[out] 1104.68 ± 6.6 kg/m3

[in] Provide measured mass density value, entry: CCCCO [butan-1-ol]
[out] 809.76 ± 0.14 kg/m3

[in] Provide measured mass density value, entry: CCO [ethanol]
[out] 789.5 ± 0.15 kg/m3

[in] Provide measured mass density value, entry: CCCO [propan-1-ol]
[out] 803.56 ± 0.15 kg/m3

Lab note: next compound to report on.
[in] Provide measured mass density value, entry: CO [methanol]
[out] 791.23 ± 0.15 kg/m3
